Cited source for all entries: patent US20230406921A1

tested.target: T1, recombinant antigen of the extracellular region of CD47 (Sino Biological, Cat: 12283-H08H) (human, UniProt Q08722 19-139)
T1 construct: extracellular domain; also called recombinant CD47 extracellular region; CD47 recombinant protein
T1 sequence (Q08722 19-139 limits assumed): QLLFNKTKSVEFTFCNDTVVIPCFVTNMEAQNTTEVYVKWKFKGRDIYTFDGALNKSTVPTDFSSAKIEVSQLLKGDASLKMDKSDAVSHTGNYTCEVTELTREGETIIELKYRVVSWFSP
assay.remarks: Fortebio BLI, antibody on AHC sensor, CD47 extracellular region 100 nM;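 also: antibody held on the sensor through anti-human Fc capture, CD47 antigen in solution, association and dissociation phases each lasting 300 s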
measurement.name: Kd (nM)
Dear colleague, please return just the value in nM, with no unit written.

Data point: hz140-Hm3/hz182-L (antibody, V domains shown) VH: QVQLVQSGAEVKKPGASVKVSCKASGYKFTNYAMHWVRQAPGQRLEWMGYINPYNDGIKYNEKFTGRVTITRDTSASTAYMELSSLRSEDTAVYYCAREGDFYANYGRLGFAYWGQGTLVTVSS VL: DIQMTQSPSSLSASVGDRVTITCRASQDISNYLNWYQQKPGKAPKLLLYYTSRLHSGVPSRFSGSGSGTDYTLTISSLQPEDFATYFCQQGAGRPYTFGGGTKVEIK ; Kd = 10.3
